Recorded values, source paper PMC9120017.

# tested system: mouse TMEM16A mutant T539A (Mus musculus, UniProt Q8BHY3, T539A)
# Construct: expressed in transfected cells; host or cells: HEK293T
# Sequence (Q8BHY3 1-960 T539A): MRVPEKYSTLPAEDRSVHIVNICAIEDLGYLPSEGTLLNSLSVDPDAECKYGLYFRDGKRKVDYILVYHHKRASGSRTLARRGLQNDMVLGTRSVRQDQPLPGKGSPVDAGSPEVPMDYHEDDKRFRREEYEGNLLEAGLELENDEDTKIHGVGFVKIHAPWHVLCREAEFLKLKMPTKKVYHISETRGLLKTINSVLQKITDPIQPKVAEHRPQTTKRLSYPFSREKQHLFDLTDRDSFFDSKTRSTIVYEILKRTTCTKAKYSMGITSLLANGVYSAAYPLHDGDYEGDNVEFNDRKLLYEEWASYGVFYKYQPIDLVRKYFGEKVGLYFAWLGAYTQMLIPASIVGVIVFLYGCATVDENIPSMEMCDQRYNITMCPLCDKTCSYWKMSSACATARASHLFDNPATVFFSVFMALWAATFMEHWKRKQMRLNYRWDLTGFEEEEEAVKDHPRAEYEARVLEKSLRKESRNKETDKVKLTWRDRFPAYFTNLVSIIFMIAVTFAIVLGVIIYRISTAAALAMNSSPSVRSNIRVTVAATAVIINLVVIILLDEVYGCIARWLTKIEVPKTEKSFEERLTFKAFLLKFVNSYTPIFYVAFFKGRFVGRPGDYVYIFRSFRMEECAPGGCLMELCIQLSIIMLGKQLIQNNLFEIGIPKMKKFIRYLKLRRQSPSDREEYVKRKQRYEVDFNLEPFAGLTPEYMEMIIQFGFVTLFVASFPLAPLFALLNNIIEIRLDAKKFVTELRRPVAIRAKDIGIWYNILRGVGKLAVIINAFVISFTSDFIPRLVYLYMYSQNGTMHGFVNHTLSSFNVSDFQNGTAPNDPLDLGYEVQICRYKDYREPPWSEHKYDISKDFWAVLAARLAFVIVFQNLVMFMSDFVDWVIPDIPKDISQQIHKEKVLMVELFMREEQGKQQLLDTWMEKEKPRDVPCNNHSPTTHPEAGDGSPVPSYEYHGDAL
# protocol: Inside-out patch recording of 1PBC block, mutant T539A
# Assay type: cell-based
# assay setup: T539A; V -20 mV

- compound structure: "N#Cc1c(C(F)(F)F)cc(O)n2c1nc1ccccc12"
  IC50 [µM]: 17.3
